Consider the following compounds and their measured IC50 readings.
measuredOn: human TLR7 (Homo sapiens (Human))
Sequence (Q9NYK1 27-1049): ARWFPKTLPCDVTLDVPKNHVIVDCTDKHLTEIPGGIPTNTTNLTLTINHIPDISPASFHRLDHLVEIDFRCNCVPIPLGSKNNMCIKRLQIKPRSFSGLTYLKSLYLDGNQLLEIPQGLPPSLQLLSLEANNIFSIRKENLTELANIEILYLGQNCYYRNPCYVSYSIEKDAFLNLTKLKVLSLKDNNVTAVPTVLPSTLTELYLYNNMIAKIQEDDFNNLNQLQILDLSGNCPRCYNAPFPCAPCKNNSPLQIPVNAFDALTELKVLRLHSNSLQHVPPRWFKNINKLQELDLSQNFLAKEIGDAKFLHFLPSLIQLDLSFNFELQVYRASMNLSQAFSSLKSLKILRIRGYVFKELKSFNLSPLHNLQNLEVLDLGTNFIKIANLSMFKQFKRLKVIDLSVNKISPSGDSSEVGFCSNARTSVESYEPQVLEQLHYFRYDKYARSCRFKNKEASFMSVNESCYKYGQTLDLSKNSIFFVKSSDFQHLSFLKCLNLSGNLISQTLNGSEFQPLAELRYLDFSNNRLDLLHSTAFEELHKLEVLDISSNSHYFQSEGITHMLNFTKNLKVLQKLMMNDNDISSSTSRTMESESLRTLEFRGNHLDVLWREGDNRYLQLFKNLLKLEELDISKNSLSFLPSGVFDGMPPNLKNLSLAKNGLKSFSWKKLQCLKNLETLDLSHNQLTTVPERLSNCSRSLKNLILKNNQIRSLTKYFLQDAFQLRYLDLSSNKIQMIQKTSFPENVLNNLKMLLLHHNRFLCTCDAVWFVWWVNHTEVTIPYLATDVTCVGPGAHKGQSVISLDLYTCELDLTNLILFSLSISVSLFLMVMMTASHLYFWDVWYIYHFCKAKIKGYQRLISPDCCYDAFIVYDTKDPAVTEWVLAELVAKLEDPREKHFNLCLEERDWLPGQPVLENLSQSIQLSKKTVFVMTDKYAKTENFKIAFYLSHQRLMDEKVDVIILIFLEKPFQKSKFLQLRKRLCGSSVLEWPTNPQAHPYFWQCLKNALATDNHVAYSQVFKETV
experimentalProtocol: TLR7 inhibition reporter assay (HEK-Blue SEAP)
Type: cell-based
conditionContext: HEK-Blue human TLR7 cells, gardiquimod 7.5 μM

| compound | measuredOn | unitAbbrev | IC50 |
| --- | --- | --- | --- |
| Cc1c(-c2[nH]c3ccc(N4C[C@@H](C)N(C(=O)CCN5CC6(C5)CS(=O)(=O)C6)C[C@@H]4C)nc3c2C(C)C)cn2ncnc2c1C | human TLR7 (Homo sapiens (Human)) | nM | 1.4 |
| CNC1CCC(c2ccc3[nH]c(-c4cn(C)c5ncncc45)c(C(C)C)c3n2)CC1 (stereo not shown) | human TLR7 (Homo sapiens (Human)) | nM | 9.8 |
| Cc1c(-c2[nH]c3ccc(N4CCN(C(=O)C5CN(C)C5)C[C@@H]4C)nc3c2C(C)C)cn2ncnc2c1C | human TLR7 (Homo sapiens (Human)) | nM | 3.7 |
| CCCN1CC2(C1)CN(c1ccc3[nH]c(-c4cc(OC)c5ncnn5c4)c(C(C)C)c3n1)C2 | human TLR7 (Homo sapiens (Human)) | nM | 1.7 |
| Cc1c(-c2[nH]c3ccc(C4CCC(N5CC6(CCO6)C5)CC4)nc3c2C(C)C)cn2ncnc2c1C (stereo not shown) [Example 1055] | human TLR7 (Homo sapiens (Human)) | nM | 4.3 |
| COc1cc(-c2[nH]c3ccc(C4CCC(N5CCOCC5)CC4)nc3c2C(C)C)cn2ncnc12 (stereo not shown) | human TLR7 (Homo sapiens (Human)) | nM | 3.7 |
| CCCN1CC2(C1)CN(c1ccc3[nH]c(-c4cn5ncnc5c(C)c4C)c(C(C)C)c3n1)C2 | human TLR7 (Homo sapiens (Human)) | nM | 1.3 |

Hey, just so you know, these numbers are from patent US10544143B2.
